# measuredTarget: 6-phosphogluconate dehydrogenase, decarboxylating (Homo sapiens) (UniProt P52209)
# Sequence (P52209 whole entry, looked up): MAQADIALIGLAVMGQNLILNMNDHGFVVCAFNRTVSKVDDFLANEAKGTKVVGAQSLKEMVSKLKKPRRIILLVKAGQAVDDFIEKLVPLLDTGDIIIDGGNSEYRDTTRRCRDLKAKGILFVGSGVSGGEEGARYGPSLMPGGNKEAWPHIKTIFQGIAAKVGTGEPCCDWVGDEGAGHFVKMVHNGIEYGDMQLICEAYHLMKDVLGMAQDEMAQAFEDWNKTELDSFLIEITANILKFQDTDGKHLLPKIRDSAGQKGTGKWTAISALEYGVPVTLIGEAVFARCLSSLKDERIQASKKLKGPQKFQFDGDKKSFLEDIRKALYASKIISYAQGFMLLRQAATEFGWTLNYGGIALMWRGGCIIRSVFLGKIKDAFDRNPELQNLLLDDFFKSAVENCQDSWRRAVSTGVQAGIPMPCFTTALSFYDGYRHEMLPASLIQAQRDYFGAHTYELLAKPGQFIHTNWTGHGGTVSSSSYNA
# assayName: 6PGD enzyme inhibitors, primary screen, biochemical, human, recombinant enzyme, NADPH absorbance (AID 1159550)
# setupConditions: recombinant 6PGD, NADPH absorbance 341 nm; at 10 µM; stronger effect = higher value
measurementLabel: inhibition (%)
Numeric answer only, unit % assumed.

Answered cases to consult:
molecule=COc1cc(/C=C/CO)ccc1O valuereported=17.3
molecule="COc1cccc2c1CCC1CC(=O)CC[C@]21C (stereo not given in full)" valuereported=-1.22
molecule=CC(=O)O[C@H]1C[C@@H](O)C(C)(C)[C@@H]2C[C@@H](OC(C)=O)[C@]3(C)[C@H](CC[C@@]4(C)[C@@H](c5ccoc5)OC(=O)[C@H]5O[C@@]534)[C@@]12C valuereported=1.48
molecule=CC(C)CCC[C@@H](C)[C@H]1CC[C@H]2[C@@H]3CC[C@H]4CCCC[C@]4(C)[C@H]3CC[C@]12C valuereported=11.6
molecule=COC1=CC(=O)C=C(OC)C1=O valuereported=1.73

(Q) Short answer please: inhibition, 6-phosphogluconate dehydrogenase, decarboxylating (Homo sapiens) (UniProt P52209), entry CCC(C(N)=O)c1ccccc1 (stereo not given)
(A) -20.8

Origin of values: PubChem BioAssay
